Hey, just so you know, these numbers are from the supplement of paper PMC8149375.

Reported minimum viability across doses values for a set of compounds
Tested on: UO-31
testProtocol: minimum viability across doses, drug + dasatinib, relative to DMSO (fraction); higher = less growth inhibition
measurementConditions: treatment: drug + dasatinib (fixed dose, not stated); 5 days
experimentalReadout: minimum viability across doses

>>> reading("O=C(NCCCNc1nc(Nc2cccc(NC(=O)N3CCCC3)c2)ncc1I)c1cccs1 [BX-795] + Cc1nc(Nc2ncc(C(=O)Nc3c(C)cccc3Cl)s2)cc(N2CCN(CCO)CC2)n1 [dasatinib]")
0.015
>>> reading("CC1(C)CCC(CN2CCN(c3ccc(C(=O)NS(=O)(=O)c4ccc(NCC5CCOCC5)c([N+](=O)[O-])c4)c(Oc4cnc5[nH]ccc5c4)c3)CC2)=C(c2ccc(Cl)cc2)C1 [ABT-199 (GDC-0199 )] + Cc1nc(Nc2ncc(C(=O)Nc3c(C)cccc3Cl)s2)cc(N2CCN(CCO)CC2)n1 [dasatinib]")
1
